- System: U251 CNS
Outcome codes: 1 for active, -1 for inactive

INSERT INTO measurements (compound, testedsystem, categorylabel) VALUES
  ('CCNC(=O)C[C@@H]1N=C(c2ccc(Cl)cc2)c2cc(OC)ccc2-n2c(C)nnc21', 'U251 CNS', -1),
  ('Nc1c(C(=O)Nc2ccccc2)sc2nc3c(cc12)CCCCCC3', 'U251 CNS', 1),
  ('C=C1C(=O)O[C@H]2[C@H]1CC/C(COC(=O)C(=O)c1c[nH]c3ccccc13)=C\CC[C@@]1(C)O[C@@H]21', 'U251 CNS', -1),
  ('COC(=O)/C=C/c1cc(O)c2c(c1)C(C(=O)OC)C(c1ccc(O)c(O)c1)O2 (centres undefined)', 'U251 CNS', 1);

* * *

- System: M14 melanoma
- protocol: NCI tumour cell line growth inhibition, 48 h
metric: TGI

INSERT INTO measurements (compound, testedsystem, observedvalue) VALUES
  ('CCNC(=O)C[C@@H]1N=C(c2ccc(Cl)cc2)c2cc(OC)ccc2-n2c(C)nnc21', 'M14 melanoma', '> 100 µM'),
  ('CC(=O)OCC1OC(On2ccccc2=S)C(OC(C)=O)C(OC(C)=O)C1OC(C)=O (stereo unspecified)', 'M14 melanoma', '> 100 µM'),
  ('Oc1cccc2c1NC1=C(CCC/C1=C\c1ccccc1)C2', 'M14 melanoma', '> 100 µM'),
  ('CC(=O)N=C(N=Nc1c(O)[nH]c2ccc(C)cc12)NC(C)=O', 'M14 melanoma', '> 100 µM'),
  ('CCOC(=O)/C(C#N)=C/c1ccc2c(-c3c(OCC)ccc4cc(/C=C(\C#N)C(=O)OCC)ccc34)c(OCC)ccc2c1', 'M14 melanoma', '35.7 µM'),
  ('COc1ccc2[nH]c(CCNC(=O)c3cc([N+](=O)[O-])cc([N+](=O)[O-])c3)cc2c1', 'M14 melanoma', '> 100 µM'),
  ('Cc1c(N2C(=O)/C(=C/C=C/c3ccccc3)N=C2c2ccccc2)c(=O)n(-c2ccccc2)n1C', 'M14 melanoma', '> 100 µM'),
  ('CC(=O)/C(C=Nc1c(C)n(C)n(-c2ccccc2)c1=O)=C(/C)O', 'M14 melanoma', '> 100 µM'),
  ('CC(C)(C)[Si](C)(C)OCC1CCC(n2cnc3c(NC(=O)c4ccccc4)ncnc32)O1 (stereo unspecified)', 'M14 melanoma', '30.3 µM'),
  ('Cc1ccc(C)c(NC(=O)C(=O)C2C(=O)C3=C(CC2(C)C)Nc2ccccc2S3)c1 (stereo unspecified)', 'M14 melanoma', '> 100 µM'),
  ('O=C1C=CC(=O)c2c1ccc1c3ccccc3n(-c3ccccn3)c21', 'M14 melanoma', '87.9 µM'),
  ('CCC1(C)C=Cc2c(cc(OC)c3c(=O)c4ccccc4n(C)c23)O1 (stereo unspecified)', 'M14 melanoma', '> 10 µM'),
  ('O=S(=O)([O-])[O-].[OH3+].[OH3+].[OH3+].[Ru+2].c1ccccc1', 'M14 melanoma', '> 100 µM'),
  ('CS(=O)(=O)c1ccc(Oc2cc(F)cc(C#N)c2)c2c1[C@H](O)[C@H](F)[C@@H]2F', 'M14 melanoma', '> 100 µM'),
  ('CC1=CC=NN2C(=O)[C@H](C)C2C1 (stereo partly specified)', 'M14 melanoma', '> 100 µM'),
  ('CC/C=C\C[C@H](O)C/C=C1/C(=O)C=C[C@@H]1C/C=C\CCCC(=O)NC(C)C', 'M14 melanoma', '10 µM'),
  ('CC(=O)N(C)OC(=O)CC(=O)c1ccccc1', 'M14 melanoma', '> 100 µM'),
  ('OCCN(CCO)N=Nc1ccc(-c2nc3ccccc3[nH]2)cc1', 'M14 melanoma', '> 100 µM'),
  ('CN(C)CCCNc1c(O)c2c(c(O)c1Cl)C(=O)C=CC2=O', 'M14 melanoma', '2.9 µM'),
  ('COC(=O)c1ccccc1C1CN=NC12Cc1ccc3ccccc3c1C2=O (stereo unspecified)', 'M14 melanoma', '> 100 µM'),
  ('Cc1ccc(Nc2nc(=S)[nH]c3[nH]ncc23)cc1', 'M14 melanoma', '> 100 µM');

* * *

- Tested on: RPMI-8226 leukemia
- protocol: NCI tumour cell line growth inhibition, 48 h
metric: TGI (µM)

INSERT INTO measurements (compound, testedsystem, metric, modifiersign, observedvalue) VALUES
  ('Cc1ccc(Nc2nc(NCCO)c3ccccc3n2)cc1C', 'RPMI-8226 leukemia', 'TGI', '=', 9.46),
  ('C[C@]12CC[C@@H]3c4ccc(O)cc4CC[C@H]3[C@@H]1C/C(=C\c1ccc([N+](=O)[O-])cc1)C2=O', 'RPMI-8226 leukemia', 'TGI', '>', 100),
  ('CC(C)(C)NNC(=O)/C(=C/c1ccc(Oc2ccc(Cl)c(Cl)c2)cc1)NC(=O)c1ccccc1', 'RPMI-8226 leukemia', 'TGI', '=', 45.1),
  ('O=C(Nc1ccc(S(=O)(=O)Nc2nccs2)cc1)c1cccnc1Nc1cccc(Cl)c1', 'RPMI-8226 leukemia', 'TGI', '=', 89.2),
  ('Nc1c(C(=O)Nc2ccccc2)sc2nc3c(cc12)CCCCCC3', 'RPMI-8226 leukemia', 'TGI', '=', 15.7),
  ('COc1ccc(OCC(=O)O)c2c1CCC(C(C)C)C2=O (stereo unspecified)', 'RPMI-8226 leukemia', 'TGI', '>', 100);

* * *

- Tested on: IGROV1 ovarian
- protocol: NCI tumour cell line growth inhibition, 48 h
The following compounds are shown together with reported GI50 values.
metric: GI50

INSERT INTO measurements (molecule, observedvalue) VALUES
  ('O=C1/C(=C/c2cccc([N+](=O)[O-])c2)COc2ccc(O)c(O)c21', '1.02 µM'),
  ('COc1ccc(C(=O)Cn2c(C(=O)c3ccc(Cl)cc3)nc3ccccc32)cc1', '25.7 µM'),
  ('CCNC(=O)C[C@@H]1N=C(c2ccc(Cl)cc2)c2cc(OC)ccc2-n2c(C)nnc21', '12.2 µM'),
  ('CCC1=C(C)/C(=C/c2[nH]c(C)c(C(=O)CCCCC(=O)OC)c2C)N=C1c1ccc[nH]1', '21.5 µM'),
  ('COc1ccc(C(=O)/C=C/c2ccc(O)c(O)c2F)c(OC)c1', '12.8 µM');

* * *

- Tested on: HCC-2998 colon
- protocol: NCI tumour cell line growth inhibition, 48 h
The following molecules are shown together with reported GI50 values.
metric: GI50

INSERT INTO measurements (molecule, observedvalue) VALUES
  ('Nc1c(C(=O)Nc2ccccc2)sc2nc3c(cc12)CCCCCC3', '0.485 µM'),
  ('O=S(=O)([O-])[O-].[OH3+].[OH3+].[OH3+].[Ru+2].c1ccccc1', '> 100 µM'),
  ('CC1=C(C)C(=O)c2c(c(C(=O)c3ccccc3)c3nc4ccccc4n3c2C)C1=O', '> 100 µM'),
  ('CC(C)C[C@H](NC(=O)[C@H](Cc1ccccc1)n1ccc(N2CCCCC2)cc1=O)B(O)O', '1.14 µM'),
  ('C=C1C(=O)O[C@H]2[C@H]1CC/C(COC(=O)C(=O)c1c[nH]c3ccccc13)=C\CC[C@@]1(C)O[C@@H]21', '1.95 µM'),
  ('COc1cccc(-c2nn(-c3ccccc3)cc2-c2ccnc(NCCNS(=O)(=O)c3ccc(Cl)cc3)c2)c1', '4.26 µM'),
  ('CCNC(=O)C[C@@H]1N=C(c2ccc(Cl)cc2)c2cc(OC)ccc2-n2c(C)nnc21', '5.77 µM');

* * *

- System: NCI-H522 lung
- protocol: NCI tumour cell line growth inhibition, 48 h
metric: TGI

INSERT INTO measurements (compound, testedsystem, observedvalue) VALUES
  ('O=C(O)CC(C(=O)O)c1ccccc1[N+](=O)[O-] (stereo not drawn)', 'NCI-H522 lung', '> 100 µM'),
  ('O=C1C2C(C(=O)N1O)N(Cc1ccccc1)C(=O)N2Cc1ccccc1 (stereo not drawn)', 'NCI-H522 lung', '> 100 µM'),
  ('NCc1ccc(-c2ccc(-c3ccc(-c4ccc(CN)s4)s3)s2)s1', 'NCI-H522 lung', '> 100 µM'),
  ('O=C(Cc1nc2ccccc2s1)C(=O)Nc1ccc(Cl)cc1', 'NCI-H522 lung', '> 100 µM'),
  ('O=c1[nH]c2ccc(C(F)(F)F)cc2nc1-c1ccccc1', 'NCI-H522 lung', '> 100 µM'),
  ('CCOC(=O)c1nc2cc(N3CCOCC3)c(F)cc2[nH]c1=O', 'NCI-H522 lung', '> 100 µM'),
  ('CCC1(C)C=Cc2c(cc(OC)c3c(=O)c4ccccc4n(C)c23)O1 (stereo not drawn)', 'NCI-H522 lung', '> 10 µM'),
  ('OCCN(CCO)N=Nc1ccc(-c2nc3ccccc3[nH]2)cc1', 'NCI-H522 lung', '> 100 µM'),
  ('CCOc1c2ccsc2c(OCC)c2ccsc12', 'NCI-H522 lung', '> 28.9 µM'),
  ('CC1=CC=NN2C(=O)[C@H](C)C2C1 (stereo partly drawn)', 'NCI-H522 lung', '> 100 µM'),
  ('O=C(Nc1ccc(S(=O)(=O)Nc2nccs2)cc1)c1cccnc1Nc1cccc(Cl)c1', 'NCI-H522 lung', '28.4 µM'),
  ('Cc1ccc(S(=O)(=O)N/N=C(\CCN2CCCC2)CC(c2ccccc2)c2c(O)c3ccccc3oc2=O)cc1 (stereo not drawn)', 'NCI-H522 lung', '> 100 µM'),
  ('O=C1NC(=O)C(C(=O)C(=O)Nc2ccc(Br)cc2)C(=O)N1', 'NCI-H522 lung', '> 100 µM'),
  ('c1ccc(N=C2c3ccccc3CN2c2ccccc2)cc1', 'NCI-H522 lung', '> 100 µM'),
  ('CN(C1=NCCO1)c1cccc2ccccc12', 'NCI-H522 lung', '> 10 µM'),
  ('O=C(Nc1ccc(Cl)c([N+](=O)[O-])c1)Nc1nc2ccccc2s1', 'NCI-H522 lung', '7.33 µM'),
  ('CCN(CC)c1ccc(/C=C(\C#N)c2nc(N)nc(N3N=C(C)CC3(C)C)n2)cc1', 'NCI-H522 lung', '36.5 µM'),
  ('O=C(Nc1ccc(Cl)c(C(F)(F)F)c1)C(=O)C(C(=O)/C=C/c1ccccc1)C1OC(=O)c2ccccc21 (stereo not drawn)', 'NCI-H522 lung', '> 100 µM'),
  ('COc1cc2oc(=O)cc(C)c2cc1[N+](=O)[O-]', 'NCI-H522 lung', '26.3 µM'),
  ('CCOC(=N)CC(=O)Nc1ccc(Cl)cc1', 'NCI-H522 lung', '> 100 µM'),
  ('CCCN1C(=O)C/C(=C\C(C)=O)Nc2ccccc21', 'NCI-H522 lung', '> 100 µM'),
  ('O=C1c2ccccc2-c2c1c1ccccc1c(=O)n2Cc1ccco1', 'NCI-H522 lung', '> 100 µM'),
  ('CC(C(=O)N1C(=O)N(C(=O)C(C)C(O)c2ccccc2)C(c2ccccc2)C1c1ccccc1)C(O)c1ccccc1 (stereo not drawn)', 'NCI-H522 lung', '48.4 µM'),
  ('Cc1ccc(-c2c(C#N)c(-c3ccc(Cl)cc3)c(C#N)c(=O)n2NS(=O)(=O)c2ccccc2)cc1', 'NCI-H522 lung', '> 100 µM'),
  ('CN(N=O)C(=O)Nc1c[nH]c(=O)[nH]c1=O', 'NCI-H522 lung', '> 100 µM'),
  ('CSC(=S)c1ccc(C(=S)SC)cc1', 'NCI-H522 lung', '> 100 µM'),
  ('O=C1c2ccccc2-c2c1c1ccccc1c(=O)n2CCCNCCCn1c2c(c3ccccc3c1=O)C(=O)c1ccccc1-2', 'NCI-H522 lung', '> 50 µM'),
  ('COc1cc(NS(C)(=O)=O)ccc1NCc1cnc2ccc3[nH]c(C)ccc3c12', 'NCI-H522 lung', '> 100 µM'),
  ('CCCCCCCCCCCCN1C(C)=CS/C1=C\C=C\c1scc(C)[n+]1CCCCCCCCCCCC', 'NCI-H522 lung', '5.11 µM'),
  ('CC1C(c2ccc(F)cc2)c2cc3c(cc2OC1N1CCCC1)OCO3 (stereo not drawn)', 'NCI-H522 lung', '> 100 µM'),
  ('CCOC(=O)c1c(C)n(Cc2ccccc2)c(=O)c2ccccc2c(=O)c2c(=O)ccc(=O)c1=2', 'NCI-H522 lung', '62.8 µM'),
  ('CC(C)C(C(=O)O)N(CC1(O)OCC(O)C(O)C1O)N=O (stereo not drawn)', 'NCI-H522 lung', '> 100 µM'),
  ('Cc1ccc(NC(=O)c2[nH]c(=S)nc(N)c2-c2ccccc2C)cc1C', 'NCI-H522 lung', '> 100 µM'),
  ('CCCCCCCCCOC(=O)c1cnc(Cl)cn1', 'NCI-H522 lung', '36.1 µM'),
  ('Cc1cc2nc3n[nH]c(N)c3nc2cc1C', 'NCI-H522 lung', '> 100 µM'),
  ('Cc1ccc(C)c(NC(=O)C(=O)C(c2cnc3ccc([N+](=O)[O-])cc3n2)[N+](=O)[O-])c1 (stereo not drawn)', 'NCI-H522 lung', '> 100 µM'),
  ('CN(C)CCCCN1CCc2c(n(C)c3ccccc23)C1=O', 'NCI-H522 lung', '> 82 µM'),
  ('CC1=C(/C=C/C(C)=C/C=C/C(C)=C/C(=O)OCC2OC(n3cc(F)c(=O)[nH]c3=O)CC2OC(=O)/C=C(C)/C=C/C=C(C)/C=C/C2=C(C)CCCC2(C)C)C(C)(C)CCC1 (stereo not drawn)', 'NCI-H522 lung', '28.2 µM'),
  ('NC(=O)NC(=O)c1cnccn1', 'NCI-H522 lung', '> 100 µM'),
  ('CN(C)c1ccc(-c2cc(=O)c3ccccc3[nH]2)cc1', 'NCI-H522 lung', '> 100 µM'),
  ('CC1=C2C(O)C(C(C)C(=O)NCC(C)C)CCC2(C)C=CC1=O (stereo not drawn)', 'NCI-H522 lung', '> 100 µM'),
  ('CC(=O)N=C(N=Nc1c(O)[nH]c2ccc(C)cc12)NC(C)=O', 'NCI-H522 lung', '> 100 µM'),
  ('Oc1cccc2c1NC1=C(CCC/C1=C\c1ccccc1)C2', 'NCI-H522 lung', '83.5 µM');
